Source listed as PubChem BioAssay.

Procedure Text: binders of probe aHhip on microarray, primary screen, stem cell growth factor project, biochemical, small-molecule microarray, fluorescence 635/667 (AID 1087);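 further: score merges spot fluorescence at 667nm with spot signal to noise ratio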
Measurement Parameters: higher = more signal
Reported composite z-score values are given for each entry in this list.
Answer with a bare number; do not write a unit.

Below, 3 compounds whose answers are already recorded.
Reported composite z-score for COC(=O)[C@H](C)NC(=O)CCC1CC(OC(=O)NCCc2ccc(F)cc2)CC2(CCCC(COC(=O)NCCc3ccc(Cl)cc3)O2)O1 (some centres undefined) was -0.0672

The compound listed as "CCCNC(=O)[C@@H]1c2ccccc2C(=O)N(c2ccc(C)cn2)[C@H]1c1ccc(CO)cc1" shows composite z-score equal to -0.258

Query "CC(C)(C)N1C(=O)[C@H]2[C@H]3[C@H](O)[C@H](O)CC(=NOCc4ccccc4)[C@@H]3CC[C@H]2C1=O" yields composite z-score of -0.15

The record that follows has no composite z-score shown yet.
Input "COCCOC(=O)N1C(=O)[C@@]2(c3cc(C#Cc4ccc(OC)cc4)ccc31)[C@H](C(=O)N1CCN(c3ncccn3)CC1)[C@H]1C(=O)O[C@H](c3ccccc3)[C@H](c3ccccc3)N1[C@@H]2c1ccc(OCCO)cc1" . Output composite z-score: 0.28
